Tested on: SKOV3
Test: Primary qHTS to identify gynecologic anti-cancer compounds using libraries of approved drugs and bioactive compounds (AID 1345084); also: nearly all actives have a fitted effect of over 55% in size
Settings: Gynecologic cancer cell panel viability, ATPlite luminescence, 48 h; series mostly up to 57.5 µM
Records with an inconclusive call do not appear. Active and inactive are the calls of the source. Calls follow the shape of the dose curve; as a rule, active = well fitted cell-killing curve with a large enough effect; inconclusive = small, poorly fitted or top-dose-only effect, or effect the other way; inactive = flat fitted curve, though single readings scatter.
Give your call using only these classes: active, inactive

Here's what some known entries look like.
compound	category
CC(C)/C=C1\NC(=O)C(C(C)C)n2c1nc1c(c2=O)C=CC=CO1 (stereo not drawn)	inactive
CC1(C)CC2C=C(C(=O)O)C3COC(=O)C(O)(CO)C23C1 (stereo not drawn)	inactive
Cc1ccc(-c2ccc3c(ccc4sc5c(c43)NC[C@@H](C)NC5=O)n2)cn1	inactive
Cc1cc2c(F)c(Oc3ncnn4cc(OCC(C)O)c(C)c34)ccc2[nH]1 (stereo not drawn)	inactive
C=C[C@H]1[C@H](O[C@@H]2O[C@H](CO)[C@@H](O)[C@H](O)[C@H]2O)OC=C(C(=O)OC)[C@H]1C[C@@H]1c2cc(O)c(O)cc2CCN1C(C)=O	inactive

Q. What is the recorded call for this compound in the test? COC(=O)N1CCC(n2ncc3c(N4CCOCC4)nc(-c4ccc(NC(=O)Nc5ccc(CO)cc5)cc4)nc32)CC1
A. active

Q. Returns: the outcome recorded for CC1=C(C(=O)O)/C(=C\CO[C@@H]2O[C@H](CO)[C@@H](O)[C@H](O)[C@H]2O)C(OC(=O)/C=C/c2ccc(O)cc2)C1 (stereo partly drawn) in this assay.
A. inactive

Q. Status in this test for CN[C@H](C(=O)N[C@H](C(=O)N(C)[C@H](/C=C(\C)C(=O)O)C(C)C)C(C)(C)C)C(C)(C)c1ccccc1 ?
A. inactive
